Provenance of the data: PubChem BioAssay AID624465

Biological target: D(2) dopamine receptor (Homo sapiens) (UniProt P14416)
Sequence (P14416 whole entry, looked up): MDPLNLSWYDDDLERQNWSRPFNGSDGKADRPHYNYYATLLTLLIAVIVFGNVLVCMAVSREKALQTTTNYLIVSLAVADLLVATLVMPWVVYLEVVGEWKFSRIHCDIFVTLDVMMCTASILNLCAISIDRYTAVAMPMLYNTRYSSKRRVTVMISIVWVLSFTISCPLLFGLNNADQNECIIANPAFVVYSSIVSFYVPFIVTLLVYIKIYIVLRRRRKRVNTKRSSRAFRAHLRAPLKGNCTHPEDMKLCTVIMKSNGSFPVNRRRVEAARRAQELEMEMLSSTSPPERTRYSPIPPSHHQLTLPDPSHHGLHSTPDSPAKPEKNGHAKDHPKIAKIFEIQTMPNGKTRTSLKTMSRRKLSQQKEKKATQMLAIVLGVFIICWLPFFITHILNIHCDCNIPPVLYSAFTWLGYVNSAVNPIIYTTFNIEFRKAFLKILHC
Test: Beta-Arrestin HTS for Positive Allosteric Modulators of the Human D2 Dopamine Receptor: Agonists
Conditions: DiscoveRx PathHunter D2 beta-arrestin, luminescence, 90 min; active compounds read high; 100% = 57 uM dopamine signal
About 300 (0.083%) of roughly 360,000 compounds were called active. The sample as a whole holds a higher share of actives than the screen did.
In this section, each of the molecules is paired with its reported activation.
metric.name: activation

[[record]]
molecule = "COC(C[C@H](O)CC(=O)COCc1ccccc1)OC"
measured_target = "D(2) dopamine receptor (Homo sapiens) (UniProt P14416)"
metric_name = "activation"
reported_measurement = "0.157% (inactive)"

[[record]]
molecule = "Cc1c(NC(=O)C(C)OC(=O)c2cc3c4ccccc4n(C)c3s2)c(=O)n(-c2ccccc2)n1C (stereo unspecified)"
measured_target = "D(2) dopamine receptor (Homo sapiens) (UniProt P14416)"
metric_name = "activation"
reported_measurement = "-5.25% (inactive)"

[[record]]
molecule = "COc1cc(NC(=O)C2CCN(c3cnccn3)CC2)cc(OC)c1"
measured_target = "D(2) dopamine receptor (Homo sapiens) (UniProt P14416)"
metric_name = "activation"
reported_measurement = "-4.96% (inactive)"

[[record]]
molecule = "CCC(=O)c1c[nH]c(C(=O)NCC2CCCO2)c1 (stereo unspecified)"
measured_target = "D(2) dopamine receptor (Homo sapiens) (UniProt P14416)"
metric_name = "activation"
reported_measurement = "-0.182% (inactive)"

[[record]]
molecule = "O=C(CSc1nc2cccc(F)c2c(=O)n1-c1ccccc1)Nc1ccc2c(c1)CCC2"
measured_target = "D(2) dopamine receptor (Homo sapiens) (UniProt P14416)"
metric_name = "activation"
reported_measurement = "0.472% (inactive)"

[[record]]
molecule = "CC(NCc1ccccc1OC1CCCC1)c1ccccc1 (stereo unspecified)"
measured_target = "D(2) dopamine receptor (Homo sapiens) (UniProt P14416)"
metric_name = "activation"
reported_measurement = "-2.1% (inactive)"

[[record]]
molecule = "N#CC1=C(N)N(c2ccc(F)cc2)C(=O)C1"
measured_target = "D(2) dopamine receptor (Homo sapiens) (UniProt P14416)"
metric_name = "activation"
reported_measurement = "-1.46% (inactive)"

[[record]]
molecule = "CCCCC(=O)N(C)c1c(CC)nc2c(OCc3ccc(S(C)(=O)=O)cc3)cccn12"
measured_target = "D(2) dopamine receptor (Homo sapiens) (UniProt P14416)"
metric_name = "activation"
reported_measurement = "-2.46% (inactive)"

[[record]]
molecule = "C=CS(=O)c1sc(Cl)c(N2CCOCC2)c1[N+](=O)[O-] (stereo unspecified)"
measured_target = "D(2) dopamine receptor (Homo sapiens) (UniProt P14416)"
metric_name = "activation"
reported_measurement = "-11% (inactive)"

[[record]]
molecule = "CC(=O)c1nnn(-c2ccc(Cl)cc2C#N)c1C"
measured_target = "D(2) dopamine receptor (Homo sapiens) (UniProt P14416)"
metric_name = "activation"
reported_measurement = "-0.344% (inactive)"

[[record]]
molecule = "CC1(C(=O)Nc2ccccc2Br)CCN1C(=O)CC1CC1 (stereo unspecified)"
measured_target = "D(2) dopamine receptor (Homo sapiens) (UniProt P14416)"
metric_name = "activation"
reported_measurement = "-0.948% (inactive)"

